# MEASUREMENT DESCRIPTION: Cmax in male Wistar Han rat at 10 mg/kg, po administered as single dose post overnight fasting measured upto 24 hrs by LC-MS/MS analysis
# Format: ADME, organism-based
# Parameters: route oral, dose 10 mg/kg, time <=24
# RUN CONDITIONS: in vivo
ENDPOINT: Cmax (nM)
Give your result in nM as a bare value.

For COC(=O)N[C@H](C(=O)N1CCC[C@H]1c1ncc(-c2cc(F)c3c(c2)OC(c2ccc4c(c2)OCCC4)n2c-3cc3cc(-c4cnc([C@@H]5CCCN5C(=O)[C@@H](NC(=O)OC)C(C)C)[nH]4)ccc32)[nH]1)C(C)C.Cl.Cl (stereo partly specified) , what is its reported Cmax?
40

====

# Test system: Huh-7
# MEASUREMENT DESCRIPTION: Inhibition of NS5A in Hepatitis C virus subtype 2b infected in human HuH7 cells assessed as reduction in viral replication by luciferase reporter gene assay
# Assay type: cell-based
Parameter class (string): assigned from measured EC90. Ranges: lo: < 2 nM; mid: ≥ 2 nM and < 5 nM; hi: ≥ 5 nM

Below, 2 molecules whose answers are already recorded.
Please report the category associated with COC(=O)N[C@H](C(=O)N1CCC[C@H]1c1ncc(-c2ccc3c(c2)OC(c2ccc(-c4ccccc4)cc2)n2c-3cc3cc(-c4cnc([C@@H]5CCCN5C(=O)[C@@H](NC(=O)OC)C(C)C)[nH]4)ccc32)[nH]1)C(C)C (mixture of isomers) , nothing else.
mid

Next entry: COC(=O)N[C@H](C(=O)N1CCC[C@H]1c1ncc(-c2cc(F)c3c(c2)OC(c2ccc4cccnc4c2)n2c-3cc3cc(-c4cnc([C@@H]5CCCN5C(=O)[C@@H](NC(=O)OC)C(C)C)[nH]4)ccc32)[nH]1)C(C)C (some centres not stated)
mid

Further cases:
Could you place COC(=O)N[C@H](C(=O)N1CCC[C@H]1c1ncc(-c2ccc3c(c2)OC(c2cccc(-c4ccccc4)c2)n2c-3cc3cc(-c4cnc([C@@H]5CCCN5C(=O)[C@@H](NC(=O)OC)C(C)C)[nH]4)ccc32)[nH]1)C(C)C (mixture of isomers) in its proper category? Many thanks.
mid

Try this molecule next: COC(=O)N[C@H](C(=O)N1CCC[C@H]1c1ncc(-c2cc(F)c3c(c2)OC(c2ccc4c(c2)OCC(=O)N4)n2c-3cc3cc(-c4cnc([C@@H]5CCCN5C(=O)[C@@H](NC(=O)OC)C(C)C)[nH]4)ccc32)[nH]1)C(C)C (some centres not stated)
hi

COC(=O)N[C@H](C(=O)N1CCC[C@H]1c1ncc(-c2cc(F)c3c(c2)OC(c2ccc4c(c2)CC[C@@H](C)O4)n2c-3cc3cc(-c4cnc([C@@H]5CCCN5C(=O)[C@@H](NC(=O)OC)C(C)C)[nH]4)ccc32)[nH]1)C(C)C (some centres not stated) ?
hi

====

# Tested on: Huh-7
# MEASUREMENT DESCRIPTION: Inhibition of NS5A in Hepatitis C virus subtype 1a infected in human HuH7 cells assessed as reduction in viral replication by luciferase reporter gene assay
# Type: cell-based
ENDPOINT: EC90 (pM)
Only the number, expressed in pM, is required.

Guide cases for EC90, answers given:
Dear colleague, I am looking for the recorded EC90 of the following molecule: COC(=O)N[C@H](C(=O)N1CCC[C@H]1c1ncc(-c2cc(F)c3c(c2)OC(c2ccc4c(c2)OCC4)n2c-3cc3cc(-c4cnc([C@@H]5CCCN5C(=O)[C@@H](NC(=O)OC)C(C)C)[nH]4)ccc32)[nH]1)C(C)C (mixture of isomers)
20

Repeat for the following molecule: COC(=O)N[C@H](C(=O)N1CCC[C@H]1c1ncc(-c2cc(F)c3c(c2)OC(c2ccc4c(c2)OCCC4)n2c-3cc3cc(-c4cnc([C@@H]5CCCN5C(=O)[C@@H](NC(=O)OC)C(C)C)[nH]4)ccc32)[nH]1)C(C)C (some centres undefined)
3

And for COC(=O)N[C@H](C(=O)N1CCC[C@H]1c1ncc(-c2cc(F)c3c(c2)OC(c2ccc4c(c2)COC4)n2c-3cc3cc(-c4cnc([C@@H]5CCCN5C(=O)[C@@H](NC(=O)OC)C(C)C)[nH]4)ccc32)[nH]1)C(C)C (some centres undefined) ?
3

From here, focus on the item given below.
Data request, read-out EC90, for COC(=O)N[C@H](C(=O)N1CCC[C@H]1c1ncc(-c2cc(F)c3c(c2)OC(c2ccc4c(c2)OCC(=O)N4C)n2c-3cc3cc(-c4cnc([C@@H]5CCCN5C(=O)[C@@H](NC(=O)OC)C(C)C)[nH]4)ccc32)[nH]1)C(C)C (some centres undefined)
2

====

# Tested on: Nonstructural protein 5A (Hepatitis C virus), Q5L478 [UNDEFINED MUTATION]
# MEASUREMENT DESCRIPTION: Inhibition of NS5A L31V mutant in Hepatitis C virus subtype 1a infected in human HuH7 cells assessed as reduction in viral replication by luciferase reporter gene assay
# Type: cell-based
# RUN CONDITIONS: Huh-7
Measured EC90 of individual entries

// returns reported EC90 for input COC(=O)N[C@H](C(=O)N1CCC[C@H]1c1ncc(-c2cc(F)c3c(c2)OC(c2ccc4c(c2)OCC[C@H]4C)n2c-3cc3cc(-c4cnc([C@@H]5CCCN5C(=O)[C@@H](NC(=O)OC)C(C)C)[nH]4)ccc32)[nH]1)C(C)C (some centres undefined)
0.007 nM

Then COC(=O)N[C@H](C(=O)N1CCC[C@H]1c1ncc(-c2cc(F)c3c(c2)OC(c2ccc4cccnc4c2)n2c-3cc3cc(-c4cnc([C@@H]5CCCN5C(=O)[C@@H](NC(=O)OC)C(C)C)[nH]4)ccc32)[nH]1)C(C)C (some centres undefined) ?
0.2 nM

Again, but for COC(=O)N[C@H](C(=O)N1CCC[C@H]1c1ncc(-c2cc(F)c3c(c2)OC(c2ccc4c(c2)OC(C)(C)C4)n2c-3cc3cc(-c4cnc([C@@H]5CCCN5C(=O)[C@@H](NC(=O)OC)C(C)C)[nH]4)ccc32)[nH]1)C(C)C.O=C(O)C(F)(F)F.O=C(O)C(F)(F)F (some centres undefined)
0.02 nM

Shifting focus to the compound that follows.
For COC(=O)N[C@H](C(=O)N1CCC[C@H]1c1ncc(-c2cc(F)c3c(c2)OC(c2ccc4c(c2)OCCC4)n2c-3cc3cc(-c4cnc([C@@H]5CCCN5C(=O)[C@@H](NC(=O)OC)C(C)C)[nH]4)ccc32)[nH]1)C(C)C (some centres undefined) , what is its reported EC90?
0.02 nM

====

# Test system: Huh-7
# MEASUREMENT DESCRIPTION: Inhibition of NS5A in Hepatitis C virus subtype 1a infected in human HuH7 cells assessed as reduction in viral replication by luciferase reporter gene assay
# Assay type: cell-based
ENDPOINT: EC90 (pM)
Give just the numeric value; pM need not be written.

Some solved cases for reference:
Which measured EC90 value corresponds to COC(=O)N[C@H](C(=O)N1CCC[C@H]1c1ncc(-c2cc(F)c3c(c2)OC(c2ccc4c(c2)CCCC4)n2c-3cc3cc(-c4cnc([C@@H]5CCCN5C(=O)[C@@H](NC(=O)OC)C(C)C)[nH]4)ccc32)[nH]1)C(C)C (some centres undefined) ?
5

// same read-out, input: COC(=O)N[C@H](C(=O)N1CCC[C@H]1c1ncc(-c2cc(F)c3c(c2)OC(c2cccc4ccccc24)n2c-3cc3cc(-c4cnc([C@@H]5CCCN5C(=O)[C@@H](NC(=O)OC)C(C)C)[nH]4)ccc32)[nH]1)C(C)C (some centres undefined)
10

Same read-out for COC(=O)N[C@H](C(=O)N1CCC[C@H]1c1ncc(-c2ccc3c(c2)OC(c2cccc(-c4ccccc4)c2)n2c-3cc3cc(-c4cnc([C@@H]5CCCN5C(=O)[C@@H](NC(=O)OC)C(C)C)[nH]4)ccc32)[nH]1)C(C)C (mixture of isomers) ?
5

--- query ---
What value of measured EC90 is listed for COC(=O)N[C@H](C(=O)N1CCC[C@H]1c1ncc(-c2cc(F)c3c(c2)OC(c2ccc4c(c2)CC[C@@H](C)O4)n2c-3cc3cc(-c4cnc([C@@H]5CCCN5C(=O)[C@@H](NC(=O)OC)C(C)C)[nH]4)ccc32)[nH]1)C(C)C (some centres undefined) ?
5

====

# MEASUREMENT DESCRIPTION: Tmax in male Wistar Han rat at 100 mg/kg, po administered as single dose post overnight fasting measured upto 24 hrs by LC-MS/MS analysis
# Assay type: ADME, organism-based
# RUN CONDITIONS: in vivo
ENDPOINT: Tmax (h)
Report the figure in h without appending any unit label.

For the compound COC(=O)N[C@H](C(=O)N1CCC[C@H]1c1ncc(-c2cc(F)c3c(c2)OC(c2ccc4c(c2)OCCC4)n2c-3cc3cc(-c4cnc([C@@H]5CCCN5C(=O)[C@@H](NC(=O)OC)C(C)C)[nH]4)ccc32)[nH]1)C(C)C.Cl.Cl (stereo partly specified) , what Tmax is on record?
5

Source listed as ChEMBL document CHEMBL4715796.
